System: NCI-H460 lung
Experiment: NCI-60 one-dose screen, 48 h (100 = growth as untreated, 0 = no growth, -100 = all killed)
Conditions: 10 µM unless noted
The panel holds about 83,000 compounds, 20% with a hit somewhere; the sample as a whole holds those more often.
recordedMetric: growth (%)
Just the number please, in %, no unit attached.

Guide cases for growth, answers given:
compound | number
CSc1nnc2c(=O)n(C)c(=O)n(C)c2n1 | 114
COc1ccncc1C#Cc1cncc(C(=O)Nc2ccc(CN3CCN(C)CC3)c(C(F)(F)F)c2)c1 | 8.17
NC(=S)N/N=C/c1ccc(OC(=O)COc2cc(Cl)c(Cl)cc2Cl)cn1 | 79.9

May I ask what growth has been recorded for "CN(C)CCCn1c2c(c3ccc(-c4ccn[nH]4)cc3c1=O)C(=O)c1ccccc1-2" ?
1.55

Check "O=C(Nc1nc2ccc(S(=O)(=O)Nc3ccc(C4(C(F)(F)F)CC4)cc3)cc2[nH]1)c1cnccn1" too.
8.38

Check "FC(F)(F)Oc1cccc(-c2cc(NCCCCCCNc3cc(-c4cccc(OC(F)(F)F)c4)nc4ccc(N5CCCC5)cc34)c3cc(N4CCCC4)ccc3n2)c1" too.
-52.1

----------
Test system: 786-0 renal
Experiment: NCI-60 one-dose screen, 48 h
Details: 10 µM unless noted
Compounds without any hit were thinned out: in the full panel of roughly 83,000, 20% have a hit. The source made the active and inactive calls. The calls were made as follows: active = growth percent below 10; inactive = the rest.
Respond only with the outcome that fits, drawn from active, inactive

Worked set:
compound | class
CCN(CCNc1cc(OC)cc2cccnc12)CCc1ccccc1 | inactive
O=C1NC(=O)C(=Cc2cn(Cc3ccccn3)c3ccccc23)C(=O)N1 | inactive
CC(O)/C=C/C=C/C(O)CC/C=C/C(=O)NCC(C)(C)O (stereo not given) | inactive
COc1cc(CCNc2nc3cc(N)cc(N)c3nc2-c2ccccc2)cc(OC)c1 | active
COc1cnccc1-c1nc2ccc3[nH]ncc3c2c2c1CCCC2 | inactive

# lookup: test call for COc1ccc(C(O)c2cc3c(N)c(C(=O)Nc4ccccc4)sc3nc2C)cc1 (stereo not given)
inactive

Check "Nc1ccccc1NC(=O)c1ccc(CN2CCC/C(=C\c3cccc(Cl)c3)C2=O)cc1" too.
inactive

Check "c1ccc(-c2nnc(Nc3ccc4c(c3)OCCO4)o2)c(NCc2ccncc2)c1" too.
inactive

Check Cc1ccc(C2C3CC4CCCCC4N3[C@@]3(C(=O)Nc4cc(Cl)ccc43)C2C(=O)c2nc3ccccc3[nH]2)cc1 (stereo not given in full) too.
inactive

Check "CCN(CC)CCCCCCNc1cc(OC)cc2cccnc12" too.
active

----------
Test system: HOP-92 NSCLC
Assay: NCI-60 one-dose screen, 48 h
Conditions: 10 µM unless noted
About 83,000 compounds went through this panel and 20% of them were active in at least one assay; those are over-represented in the sample as a whole. Activity calls are given as the source filed them. Rule for the calls: active = growth percent below 10; inactive = the rest.
Respond only with the outcome that fits, drawn from yes (1) = active, no (0) = inactive

Worked set:
compound | class
Cc1nn(-c2ccccc2)c(N2CCOCC2)c1/C=N/N=c1\sc2ccccc2n1C | no (0)
Clc1ccc(C2CC(c3cccc(Nc4ccncc4)c3)=NN2c2ccccc2)cc1 (stereo not drawn) | no (0)
Cc1cc(NC(=O)c2cnc(N3CCN(CCOCCOCCOCCOCCC(=O)N[C@H](C(=O)N4C[C@H](O)C[C@H]4C(=O)N[C@@H](C)c4ccc(-c5scnc5C)cc4)C(C)(C)C)CC3)cn2)c2ncccc2c1 | yes (1)
COc1cc2nc(-c3ccc(C(F)(F)F)cc3)cc(OCCN3CCC(O)CC3)c2cc1OC | no (0)
O=C(NNc1nc(Cl)nc(N2CCN(C(c3ccccc3)c3ccccc3)CC2)n1)c1ccccc1 | no (0)

# lookup: test call for "O=C(CCN1CCCC1)Nc1ccc2c(NCc3ccc(F)cc3)c3ccccc3nc2c1"
yes (1)

Check "N/C(=N\N=C\c1cc2ccccc2s1)N/N=C/c1cc2ccccc2s1" too.
no (0)

Check "CN1CCN(CCCOc2ccc3ncnc(Nc4ccc(Oc5cccc(C(F)(F)F)c5)c(Cl)c4)c3c2)CC1" too.
no (0)

----------
Test system: SK-MEL-5 melanoma
Test: NCI-60 one-dose screen, 48 h (100 = growth as untreated, 0 = no growth, -100 = all killed)
Details: 10 µM unless noted
This is part of a sample that, as a whole, favours compounds with a hit. Of some 83,000 tested, about 20% had one in any assay.
recordedMetric: growth (%)
Just the number please, in %, no unit attached.

molecule | studyTarget | growth [%]
COc1ccc(C(=O)/C=C/c2cn(Cc3ccc(Cl)cc3)c3ccccc23)cc1 | SK-MEL-5 melanoma | 89.1
COc1ccc(-c2nc(SCC(C)C)nc(N/N=C(/C)c3ccc(OC)c(OC)c3)c2C#N)cc1 | SK-MEL-5 melanoma | 74.6
COc1ccc(C(=O)c2cc3c(N)c(C(=O)Nc4cccc(Cl)c4)sc3nc2C)cc1 | SK-MEL-5 melanoma | 9.91
O=S(=O)(c1ccc(N/N=C\c2ccccc2)cc1)c1ccc(N/N=C/c2ccccc2)cc1 | SK-MEL-5 melanoma | 74.7
COc1ccc(C(O)c2cc3c(N)c(C(=O)Nc4ccccc4)sc3nc2C)cc1 (stereo not given) | SK-MEL-5 melanoma | -31.9

May I ask what growth has been recorded for "CC(=O)OCC(=O)[C@@]1(O)CC[C@H]2[C@@H]3CC(=C(Br)Br)C4=CC(=O)CC[C@]4(C)[C@H]3C(=O)C[C@@]21C" ?
95.2

Check NC(=O)c1ncn(C2OC(CO)C(O)C2O)n1 (stereo not given) too.
99.1

Check "O=C(Nc1cccc(Cl)c1)Oc1c(Br)c(Br)c(Br)c(Br)c1Br" too.
75.2

Check "O=C(Nc1ccc(F)cc1)c1c(NC(=O)C(F)(F)F)sc2c1CCCCC2" too.
-55.6

Check "COc1ccccc1OCC(=O)N1CCCCCC1" too.
100

----------
System: SF-539 CNS
Experiment: NCI-60 one-dose screen, 48 h (100 = growth as untreated, 0 = no growth, -100 = all killed)
Details: 10 µM unless noted
About 83,000 compounds went through this panel and 20% of them were active in at least one assay; those are over-represented in the sample as a whole. The source made the active and inactive calls. Rule for the calls: active = growth percent below 10; inactive = the rest.
recordedMetric: growth

molecule | growth
O=C(CNCCO)Nc1ccc2ncnc(Nc3ccc(OCc4cccc(F)c4)c(Cl)c3)c2c1 | 87.8% (inactive)
O=C(O)C(/C=C/c1ccco1)=N\Nc1nc(-c2ccc(Cl)cc2)cs1 | 43.4% (inactive)
Cc1cn(-c2cc(C(=O)Nc3cccc(C#Cc4cccc5[nH]nc(N)c45)c3)cc(C(F)(F)F)c2)cn1 | 25.3% (inactive)

# returns recorded growth (system: SF-539 CNS) for "CN(C)Cc1c(-c2ccccc2)[nH]c2ccccc12"
106% (inactive)

Check "CCOC(=O)C1=C(C)NC(C)=C(C(=O)OCC)C1c1cc(Br)c(O)c(OC)c1" too.
22.8% (inactive)

Check "CN1CCN(C(=O)OCc2nc3c(N4CCOCC4)nc(-c4ccccc4)nc3n2C)CC1" too.
-99.6% (active)

Check "CC1(C)[C@H](O)CC[C@]2(C)[C@@H]1CC[C@@]13C[C@@H](CC[C@H]12)[C@@](O)(CO)C3" too.
106% (inactive)

----------
Test system: M14 melanoma
Assay: NCI-60 one-dose screen, 48 h
Settings: 10 µM unless noted
The panel holds about 83,000 compounds, 20% with a hit somewhere; the sample as a whole holds those more often. Calls of active or inactive are those of the source. How the source made its calls: active means growth percent below 10; inactive means the rest.
Respond only with the outcome that fits, drawn from true (active), false (inactive)

Worked set:
compound | class
Cc1[nH]n(C(=O)c2ccncc2)c(=O)c1N=Nc1ccc(F)c(Cl)c1 | false
COc1cc(/C=N/NC(=O)c2ccccc2Nc2cccc(C(F)(F)F)c2)ccc1O | false

# lookup: test call for "COc1ccc(NC(=O)c2sc3nc(C)c(C(=O)c4ccc(OC)cc4)cc3c2N)cc1"
false

Check "CN(C)C(=O)OCc1nc2c(N3CCOCC3)nc(-c3ccccc3)nc2n1C" too.
true

Check "Cn1c(COC(=O)NCCn2ccnc2)nc2c(N3CCOCC3)nc(-c3ccccc3)nc21" too.
true

Check Cc1ccc(C2CC(c3cccc(Nc4ccncc4)c3)=NN2c2ccc(Cl)cc2)cc1 (stereo not given) too.
true

Check "COc1ccc(-c2nc(N/N=C/c3ccco3)nc(N3CCOCC3)c2C#N)cc1" too.
false

----------
System: SK-MEL-28 melanoma
Test: NCI-60 one-dose screen, 48 h
Details: 10 µM unless noted
Protocol: Growth inhibition of the SK-MEL-28 human tumor cell line is measured as a screen for anti-cancer activity. Cells are grown in 96 well plates and exposed to the test compound for 48 hours. Compounds are tested at a single concentration, which is 10^-5 M for most compounds. The reported endpoint is percent growth (GI% or GIPRCNT), where numbers from 0 - 100% represent growth inhibition, and numbers from -100% - 0 represent cell death. For example, a value of 40 represents 60% growth inhibition. […]
About 83,000 compounds went through this panel and 20% of them were active in at least one assay; those are over-represented in the sample as a whole. Calls of active or inactive are those of the source. The calls were made as follows: active = growth percent below 10; inactive = the rest.
Respond only with the outcome that fits, drawn from class 1 = active, class 0 = inactive

# lookup: test call for "CCCCCCNC(=O)Oc1ccc(/C(=C(/CC)Cc2ccccc2)c2ccc(OCCN(CC)CC)cc2)cc1"
class 0

Check "C=C(C)[C@@H]1CC[C@]2(C(=O)NCC(=O)OC)CC[C@]3(C)[C@H](CC[C@@H]4[C@@]5(C)Cc6c([nH]c7ccccc67)C(C)(C)[C@@H]5CC[C@]43C)[C@@H]12" too.
class 0

Check "CN1C(=O)N(C)[C@H]2NC(NN)=N[C@H]21" too.
class 0

Values compiled from PubChem BioAssay (NCI).
